Just for reference, the supplement of paper PMC6555819 is where these values come from.

System: LXRa homodimer (NR concentration 270 nM)
Assay Remarks: PBM binding z-score (relative to random genomic background probes); higher = stronger binding; sequences stand for … in GC…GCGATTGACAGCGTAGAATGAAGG
Quantity Measured: PBM binding z-score

[[record]]
biopolymer_sequence = "CCGACTGTGGCAGAAAGGTTACCATACCATCCGG"
result = 0.0726

[[record]]
biopolymer_sequence = "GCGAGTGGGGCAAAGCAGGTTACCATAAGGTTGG"
result = -0.115

[[record]]
biopolymer_sequence = "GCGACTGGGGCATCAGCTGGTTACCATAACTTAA"
result = -0.452

[[record]]
biopolymer_sequence = "CCGAGTAGGTTATGGGGCATTCTGGCAACGGTGA"
result = -0.113

[[record]]
biopolymer_sequence = "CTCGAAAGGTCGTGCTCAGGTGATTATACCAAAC"
result = 0.561

[[record]]
biopolymer_sequence = "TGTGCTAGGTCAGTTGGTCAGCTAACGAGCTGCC"
result = -0.546

[[record]]
biopolymer_sequence = "TAGCCTAGGTCAGATCGGGACAGTATACGCTATA"
result = -0.0323

[[record]]
biopolymer_sequence = "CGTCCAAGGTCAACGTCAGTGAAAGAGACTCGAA"
result = 0.128

[[record]]
biopolymer_sequence = "TCATGTAGATCAATAGAGGTTAAGAAAGTGCGCT"
result = 0.701

[[record]]
biopolymer_sequence = "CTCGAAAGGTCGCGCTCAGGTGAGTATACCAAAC"
result = 0.0163

[[record]]
biopolymer_sequence = "ATATGTAGGTTGCATCCGGGTCATTCAGGCTATG"
result = 0.122

[[record]]
biopolymer_sequence = "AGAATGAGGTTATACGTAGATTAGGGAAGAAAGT"
result = 0.103

[[record]]
biopolymer_sequence = "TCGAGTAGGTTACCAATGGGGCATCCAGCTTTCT"
result = -0.623

[[record]]
biopolymer_sequence = "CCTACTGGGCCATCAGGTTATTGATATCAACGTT"
result = 0.178

[[record]]
biopolymer_sequence = "TCTTGTAGATCAACCGGAGGTTAAGAAAGATCGA"
result = 1.09

[[record]]
biopolymer_sequence = "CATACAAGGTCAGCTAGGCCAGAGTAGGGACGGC"
result = 0.878

[[record]]
biopolymer_sequence = "GCTCGGAGGACAAGGTCAGTGCTTTGTCCGTAGA"
result = -0.17

[[record]]
biopolymer_sequence = "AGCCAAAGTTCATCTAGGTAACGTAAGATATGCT"
result = 5.31


###

Test system: PPARg:RXRa DBDmut IVT, anti-RXR (DBD mutation: RXRa K156A/R161A, NR concentration 270 nM, RXRa partner concentration 90 nM)
Assay Remarks: PBM binding z-score (relative to random genomic background probes); higher = stronger binding; sequences stand for … in GC…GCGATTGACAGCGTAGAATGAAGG
// reported PBM binding z-score per item
Quantity Measured: PBM binding z-score

[[record]]
biopolymer_sequence = "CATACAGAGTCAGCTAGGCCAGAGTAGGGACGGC"
quantity_measured = "PBM binding z-score"
numeric_result = -0.267

[[record]]
biopolymer_sequence = "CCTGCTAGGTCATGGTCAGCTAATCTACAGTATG"
quantity_measured = "PBM binding z-score"
numeric_result = 4.5

[[record]]
biopolymer_sequence = "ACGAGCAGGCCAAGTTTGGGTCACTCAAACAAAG"
quantity_measured = "PBM binding z-score"
numeric_result = -0.114

[[record]]
biopolymer_sequence = "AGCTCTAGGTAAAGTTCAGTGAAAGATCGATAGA"
quantity_measured = "PBM binding z-score"
numeric_result = 2.67

[[record]]
biopolymer_sequence = "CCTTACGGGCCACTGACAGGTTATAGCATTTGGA"
quantity_measured = "PBM binding z-score"
numeric_result = 0.882

[[record]]
biopolymer_sequence = "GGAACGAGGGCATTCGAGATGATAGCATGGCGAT"
quantity_measured = "PBM binding z-score"
numeric_result = 2.56

[[record]]
biopolymer_sequence = "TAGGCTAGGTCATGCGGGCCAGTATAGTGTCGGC"
quantity_measured = "PBM binding z-score"
numeric_result = 2.31

[[record]]
biopolymer_sequence = "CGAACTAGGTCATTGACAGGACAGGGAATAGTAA"
quantity_measured = "PBM binding z-score"
numeric_result = 8.02

[[record]]
biopolymer_sequence = "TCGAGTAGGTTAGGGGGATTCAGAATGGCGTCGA"
quantity_measured = "PBM binding z-score"
numeric_result = 2.93

[[record]]
biopolymer_sequence = "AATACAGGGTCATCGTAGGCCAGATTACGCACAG"
quantity_measured = "PBM binding z-score"
numeric_result = 2.88

[[record]]
biopolymer_sequence = "TGTAAAAGTTCAAAGGTAACGTAAGTATCCACAC"
quantity_measured = "PBM binding z-score"
numeric_result = 0.163

[[record]]
biopolymer_sequence = "TAGCCTAGGTCATTCAGAGGCCAGTATAGAAAGC"
quantity_measured = "PBM binding z-score"
numeric_result = 1.43

[[record]]
biopolymer_sequence = "CGAACTAGGTCAGAACAGGACAGGGAAGGATGAT"
quantity_measured = "PBM binding z-score"
numeric_result = 7.1

[[record]]
biopolymer_sequence = "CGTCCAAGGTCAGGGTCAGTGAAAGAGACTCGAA"
quantity_measured = "PBM binding z-score"
numeric_result = 2.17

[[record]]
biopolymer_sequence = "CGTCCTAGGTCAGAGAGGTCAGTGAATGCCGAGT"
quantity_measured = "PBM binding z-score"
numeric_result = 2.86

[[record]]
biopolymer_sequence = "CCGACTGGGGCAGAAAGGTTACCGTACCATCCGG"
quantity_measured = "PBM binding z-score"
numeric_result = 1.72

[[record]]
biopolymer_sequence = "TTACCAAGGTGAAGGGCGTTGATCCCTCTGTAGA"
quantity_measured = "PBM binding z-score"
numeric_result = 1.73

[[record]]
biopolymer_sequence = "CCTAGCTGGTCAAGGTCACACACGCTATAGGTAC"
quantity_measured = "PBM binding z-score"
numeric_result = 1.88

[[record]]
biopolymer_sequence = "ATATGTAGGTTACATCCGTGTCATTCAGGCTATG"
quantity_measured = "PBM binding z-score"
numeric_result = 7.68

[[record]]
biopolymer_sequence = "GATACAGGGTCAGCTAGGGGCCAGAGTATGGAAA"
quantity_measured = "PBM binding z-score"
numeric_result = 1.75

[[record]]
biopolymer_sequence = "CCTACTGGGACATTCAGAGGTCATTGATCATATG"
quantity_measured = "PBM binding z-score"
numeric_result = 4.26

[[record]]
biopolymer_sequence = "CCTACTGGGCCATCAGGTCCTTGATATCAACGTT"
quantity_measured = "PBM binding z-score"
numeric_result = 3.89

[[record]]
biopolymer_sequence = "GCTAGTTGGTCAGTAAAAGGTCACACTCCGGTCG"
quantity_measured = "PBM binding z-score"
numeric_result = 1.66

[[record]]
biopolymer_sequence = "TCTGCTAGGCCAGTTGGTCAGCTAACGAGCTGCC"
quantity_measured = "PBM binding z-score"
numeric_result = 0.789

[[record]]
biopolymer_sequence = "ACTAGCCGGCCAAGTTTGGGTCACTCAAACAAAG"
quantity_measured = "PBM binding z-score"
numeric_result = -0.561

[[record]]
biopolymer_sequence = "CTAACAAGGTGAACAAGGTCGTTGATTACTATTC"
quantity_measured = "PBM binding z-score"
numeric_result = 4.02

[[record]]
biopolymer_sequence = "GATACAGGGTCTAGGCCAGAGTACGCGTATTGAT"
quantity_measured = "PBM binding z-score"
numeric_result = -0.37

[[record]]
biopolymer_sequence = "CGTCCAAGGTCAGGAGGTCAGTGAAAGCGACGTG"
quantity_measured = "PBM binding z-score"
numeric_result = 2.95

[[record]]
biopolymer_sequence = "CTACCAAGGTGAACAAGGTCGTTGACTACTATTC"
quantity_measured = "PBM binding z-score"
numeric_result = 2.76

[[record]]
biopolymer_sequence = "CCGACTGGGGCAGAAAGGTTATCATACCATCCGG"
quantity_measured = "PBM binding z-score"
numeric_result = 1.78

[[record]]
biopolymer_sequence = "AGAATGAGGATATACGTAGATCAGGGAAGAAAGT"
quantity_measured = "PBM binding z-score"
numeric_result = -0.138


###

System: RARa:RXR (NR concentration 270 nM, RXRa partner concentration 90 nM)
Assay Remarks: PBM binding z-score (relative to random genomic background probes); higher = stronger binding; sequences stand for … in GC…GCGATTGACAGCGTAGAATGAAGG
Each entry belongs to exactly one class, chosen by where its PBM binding z-score falls: low value (below 1), medium value (1 to below 4), high value (4 or more)

[[record]]
biopolymer_sequence = "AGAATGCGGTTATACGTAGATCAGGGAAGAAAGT"
category_label = "low value"

[[record]]
biopolymer_sequence = "TCGAGTAGGTCACCAATGGGGCATTCAGCTTTCT"
category_label = "medium value"

[[record]]
biopolymer_sequence = "CCTAGTTGGTCAAGGTCAGACACGCTATAGGTAC"
category_label = "medium value"

[[record]]
biopolymer_sequence = "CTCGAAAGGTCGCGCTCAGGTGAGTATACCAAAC"
category_label = "high value"

[[record]]
biopolymer_sequence = "GCAGACAGGTGAAACGCAGGTAACTTAGGGTGGC"
category_label = "low value"

[[record]]
biopolymer_sequence = "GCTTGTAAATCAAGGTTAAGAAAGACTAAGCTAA"
category_label = "medium value"

[[record]]
biopolymer_sequence = "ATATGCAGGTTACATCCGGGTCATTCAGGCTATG"
category_label = "medium value"

[[record]]
biopolymer_sequence = "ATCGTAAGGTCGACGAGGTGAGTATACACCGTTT"
category_label = "medium value"

[[record]]
biopolymer_sequence = "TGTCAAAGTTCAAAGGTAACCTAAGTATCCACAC"
category_label = "high value"

[[record]]
biopolymer_sequence = "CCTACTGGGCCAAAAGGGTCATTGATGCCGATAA"
category_label = "medium value"

[[record]]
biopolymer_sequence = "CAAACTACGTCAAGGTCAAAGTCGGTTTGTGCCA"
category_label = "high value"

[[record]]
biopolymer_sequence = "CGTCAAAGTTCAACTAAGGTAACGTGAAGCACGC"
category_label = "high value"

[[record]]
biopolymer_sequence = "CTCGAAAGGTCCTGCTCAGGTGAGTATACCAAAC"
category_label = "low value"

[[record]]
biopolymer_sequence = "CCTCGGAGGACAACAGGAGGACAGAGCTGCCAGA"
category_label = "low value"

[[record]]
biopolymer_sequence = "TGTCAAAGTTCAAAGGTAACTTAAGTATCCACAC"
category_label = "high value"

[[record]]
biopolymer_sequence = "TCAGACAGGTGAAGGTAGCTCAGGTACGCAGTCG"
category_label = "low value"

[[record]]
biopolymer_sequence = "CAGACTAGGTCACGAAAGGTCAAAGTCGAATGAC"
category_label = "high value"

[[record]]
biopolymer_sequence = "CCAGGCAGGTGAAAGGTAACTCAGTCTGGTACGC"
category_label = "medium value"

[[record]]
biopolymer_sequence = "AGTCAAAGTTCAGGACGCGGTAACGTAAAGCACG"
category_label = "medium value"

[[record]]
biopolymer_sequence = "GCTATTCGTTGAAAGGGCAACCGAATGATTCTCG"
category_label = "low value"

[[record]]
biopolymer_sequence = "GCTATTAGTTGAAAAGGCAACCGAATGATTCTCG"
category_label = "low value"

[[record]]
biopolymer_sequence = "CCTGCTTGGTCAATGGTCAGCTAAAGCAGCTCGC"
category_label = "low value"

[[record]]
biopolymer_sequence = "AGTCAAAGTACAGGACGAGGTAACGTAAAGCACG"
category_label = "low value"

[[record]]
biopolymer_sequence = "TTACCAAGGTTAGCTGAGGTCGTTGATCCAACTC"
category_label = "medium value"

[[record]]
biopolymer_sequence = "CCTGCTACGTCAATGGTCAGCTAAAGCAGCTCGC"
category_label = "low value"

[[record]]
biopolymer_sequence = "AGTCAAAGTTCATCTAGGTAAAGTAAGATATGCT"
category_label = "high value"

[[record]]
biopolymer_sequence = "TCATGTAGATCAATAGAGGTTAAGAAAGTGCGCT"
category_label = "medium value"

[[record]]
biopolymer_sequence = "CATACTGGGCCATTCAGAGGTCATTGATCATATG"
category_label = "high value"

[[record]]
biopolymer_sequence = "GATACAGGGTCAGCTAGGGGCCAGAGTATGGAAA"
category_label = "high value"

[[record]]
biopolymer_sequence = "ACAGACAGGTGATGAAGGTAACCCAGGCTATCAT"
category_label = "low value"

[[record]]
biopolymer_sequence = "TCATATAGGTAAAGTTGAAAGTCGAACGATATGA"
category_label = "low value"

[[record]]
biopolymer_sequence = "ATCGAAAGGTCGACGAAGTGAGTATACACCGTTT"
category_label = "medium value"

[[record]]
biopolymer_sequence = "TAGCATAGGTCAGATCGGGCCAGTATACGCTATA"
category_label = "medium value"

[[record]]
biopolymer_sequence = "CTTCCAAGGTCAAAGGTCAGTGAAGAGATGACGG"
category_label = "high value"

[[record]]
biopolymer_sequence = "GCAGAAAGGTGAAACGCAGGTAACTCAGGGTGGC"
category_label = "medium value"

[[record]]
biopolymer_sequence = "ACTTACGGGTCAACGAGGTTATACCACGCGTATA"
category_label = "high value"

[[record]]
biopolymer_sequence = "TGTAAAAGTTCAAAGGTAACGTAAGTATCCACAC"
category_label = "high value"

[[record]]
biopolymer_sequence = "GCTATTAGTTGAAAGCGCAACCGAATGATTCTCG"
category_label = "low value"

[[record]]
biopolymer_sequence = "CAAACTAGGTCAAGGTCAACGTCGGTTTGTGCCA"
category_label = "high value"

